Data provenance: ChEMBL document CHEMBL1143464

Target: Glucocorticoid receptor (Homo sapiens)
Assay: Effective concentration against inhibition of Dexamethasone induced glucocorticoid receptor transactivation of mouse mammary tumor virus luciferase gene in HeLa cells
Format: cell-based
pEC50: −log10 of the molar value.
Metric Name: pEC50

compound="CC(C)C(O)(CC(C)(C)c1ccccc1)C(=O)Nc1ccc2c(c1)COC2=O (centres undefined)" subject_of_test="Glucocorticoid receptor (Homo sapiens)" obs_value=6.21
compound="CC(C)(CC(O)(Cc1ccccc1)C(=O)Nc1ccc2c(c1)COC2=O)c1ccccc1 (centres undefined)" subject_of_test="Glucocorticoid receptor (Homo sapiens)" obs_value=6.69
compound="COc1ccc(F)cc1C(C)(C)CC(O)(CNc1ccc2c(c1)COC2=O)Cc1ccccc1 (centres undefined)" subject_of_test="Glucocorticoid receptor (Homo sapiens)" obs_value=6.21
compound="CC(C)(CC(O)(CC1CCCCC1)C(=O)Nc1ccc2c(c1)COC2=O)c1ccccc1 (stereo in doubt; 6)" subject_of_test="Glucocorticoid receptor (Homo sapiens)" obs_value=6.85
compound="CC(C)(C)c1ccc(CC(O)(CC(C)(C)c2ccccc2)C(=O)Nc2ccc3c(c2)COC3=O)cc1 (centres undefined)" subject_of_test="Glucocorticoid receptor (Homo sapiens)" obs_value=6.12
compound="CC(C)(CC(O)(Cc1ccccc1)C(=O)Nc1ccc2c(c1)COC2=O)c1cc(F)ccc1O (centres undefined)" subject_of_test="Glucocorticoid receptor (Homo sapiens)" obs_value=6.38
compound="Cc1noc(=O)c2ccc(NC(=O)C(O)(Cc3ccccc3)CC(C)(C)c3cc(F)ccc3O)cc12 (centres undefined)" subject_of_test="Glucocorticoid receptor (Homo sapiens)" obs_value=6.89
compound="CC(O)(CC(C)(C)c1ccccc1)C(=O)Nc1ccc2c(c1)COC2=O (centres undefined)" subject_of_test="Glucocorticoid receptor (Homo sapiens)" obs_value=5.63
compound="CC(C)(CC(O)(C(=O)Nc1ccc2c(c1)COC2=O)C(F)(F)F)c1cc(F)ccc1O (centres undefined)" subject_of_test="Glucocorticoid receptor (Homo sapiens)" obs_value=6.82

###

Target: Glucocorticoid receptor (Homo sapiens)
Sequence (P04150 whole entry): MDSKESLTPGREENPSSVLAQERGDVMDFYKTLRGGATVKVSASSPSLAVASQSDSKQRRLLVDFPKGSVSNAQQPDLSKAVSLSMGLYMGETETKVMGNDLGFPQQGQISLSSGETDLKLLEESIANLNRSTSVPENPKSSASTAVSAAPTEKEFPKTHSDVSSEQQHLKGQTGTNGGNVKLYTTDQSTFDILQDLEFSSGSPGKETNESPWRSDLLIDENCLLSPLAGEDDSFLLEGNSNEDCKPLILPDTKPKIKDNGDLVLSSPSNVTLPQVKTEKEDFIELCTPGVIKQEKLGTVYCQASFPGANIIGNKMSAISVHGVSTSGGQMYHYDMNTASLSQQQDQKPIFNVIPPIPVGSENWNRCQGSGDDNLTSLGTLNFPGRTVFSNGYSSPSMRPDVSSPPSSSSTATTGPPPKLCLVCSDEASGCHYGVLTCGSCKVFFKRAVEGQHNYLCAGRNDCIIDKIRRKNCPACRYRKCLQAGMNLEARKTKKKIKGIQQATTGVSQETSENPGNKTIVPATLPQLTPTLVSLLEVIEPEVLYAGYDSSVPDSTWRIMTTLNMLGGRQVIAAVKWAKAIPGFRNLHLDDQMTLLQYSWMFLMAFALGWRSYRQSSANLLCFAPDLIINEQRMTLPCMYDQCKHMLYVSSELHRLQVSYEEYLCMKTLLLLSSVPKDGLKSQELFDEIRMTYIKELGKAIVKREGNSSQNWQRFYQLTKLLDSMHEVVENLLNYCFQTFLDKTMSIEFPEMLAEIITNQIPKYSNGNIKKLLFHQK
pIC50: −log10 of the molar value.
Readings of pIC50 for the listed compounds
Metric Name: pIC50

compound="COc1ccc(F)cc1C(C)(C)CC(O)(Cc1ccccc1)C(=O)Nc1ccc2c(c1)COC2=O (stereo not given)" subject_of_test="Glucocorticoid receptor (Homo sapiens)" obs_value=7.28
compound="COc1ccc(F)cc1C(C)(C)CC(O)(CNc1ccc2c(c1)COC2=O)Cc1ccccc1 (stereo not given)" subject_of_test="Glucocorticoid receptor (Homo sapiens)" obs_value=7.09
compound="CC(C)(CC(O)(C(=O)Nc1ccc2c(c1)COC2=O)c1ccccc1)c1ccccc1 (stereo not given)" subject_of_test="Glucocorticoid receptor (Homo sapiens)" obs_value=6.34
compound="CC(C)(CC(O)(CCc1ccccc1)C(=O)Nc1ccc2c(c1)COC2=O)c1ccccc1 (stereo not given)" subject_of_test="Glucocorticoid receptor (Homo sapiens)" obs_value=7.24
compound="CC(C)(CC(O)(CC1CCCCC1)C(=O)Nc1ccc2c(c1)COC2=O)c1ccccc1 (stereo in doubt)" subject_of_test="Glucocorticoid receptor (Homo sapiens)" obs_value=6.49
